- test-details: Selectivity index, ratio of IC50 for human KB cells to IC50 for Plasmodium falciparum W2
- Assay type: toxicity, cell-based
- run-conditions: KB cells versus Plasmodium falciparum W2, read-out: Ratio IC50
observation-type: selectivity ratio

C[C@@H]1CC[C@H]2[C@@H](C)C(=O)O[C@@H]3O[C@@]4(C)CC[C@@H]1[C@]32OO4: > 3280
C=C[C@H]1CN2CC[C@H]1C[C@H]2[C@H](O)c1ccnc2ccc(OC)cc12: > 700
OC(c1cc(C(F)(F)F)nc2c(C(F)(F)F)cccc12)C1CCCCN1 (centres undefined): 4380
CCC[C@@H](OC(C)=O)C1=C(Br)C(=C(Br)Br)OC1=O: < 1

---

- Tested on: LNCaP
- test-details: Cytotoxicity against human LNCAP cells
- Assay type: functional
- run-conditions: read-out: ED50 (the source's name)
Label 1.0 when EC50 is strictly below 4 µg/mL; at or above that, label 0.0.

CCC[C@@H](O)C1=C(Br)/C(=C/I)OC1=O: 1.0
CCC[C@@H](OC(C)=O)C1=C(Br)[C@@](CI)(OC)OC1=O: 0.0
CCC[C@@H](O)C1=C(Br)C(=C(Br)Br)OC1=O: 0.0
CCC[C@@H](O)C1=C(Br)/C(=C/Br)OC1=O: 1.0
CCC[C@@H](OC(C)=O)C1=C(Br)[C@](C)(OC)OC1=O: 1.0
CCC[C@@H](OC(C)=O)C1=C(Br)/C(=C/I)OC1=O: 1.0
CCC[C@@H](OC(C)=O)C1=C(Br)/C(=C/Br)OC1=O: 1.0
CCC[C@@H](O)C1=C(Br)[C@](CI)(OC)OC1=O: 0.0
CCC[C@@H](OC(C)=O)C1=C(Br)[C@@](C)(OC)OC1=O: 1.0
CCCCCCC(=O)C(Br)=C(Br)Br: 0.0
CCCCC1=C(Br)C(OC)(C(Br)Br)OC1=O (configuration not stated): 0.0
CCC[C@@H](OC(C)=O)C1=C(Br)[C@@](OC)(C(Br)Br)OC1=O: 1.0

---

- test-details: Inhibition of TK assessed as residual activity at 200 ug/ml
// reported Activity per item
observation-type: Activity (%)

CCC[C@@H](OC(C)=O)C1=C(Br)[C@@](OC)(C(Br)Br)OC1=O: 22.7
CCC[C@@H](O)C1=C(Br)[C@](CI)(OC)OC1=O: 55.7
CCC[C@@H](OC(C)=O)C1=C(Br)[C@](C)(OC)OC1=O: 86
CCC[C@@H](O)C1=C(Br)/C(=C\Cl)OC1=O: 1.6
CCC[C@@H](OC(C)=O)C1=C(Br)[C@](OC)(C(Br)Br)OC1=O: 87.5
CCC[C@@H](O)C1=C(Br)C(=C(Br)Br)OC1=O: 4.5
CCC[C@@H](OC(C)=O)C1=C(Br)C(=C(Br)Br)OC1=O: 1.9
CCC[C@@H](O)C1=C(Br)/C(=C/I)OC1=O: 4.2
CCC[C@@H](O)C1=C(Br)/C(=C/Br)OC1=O: 3.4
CCC[C@@H](O)C1=C(Br)[C@@](CI)(OC)OC1=O: 77.2
CCC[C@@H](O)C1=C(Br)/C(=C/Cl)OC1=O: 1.9
CCC[C@@H](O)C1=C(Br)/C(=C\I)OC1=O: 5.8
CCC(CCC(=O)C(Br)=C(Br)Br)OC(C)=O (stereo not drawn): 31.7

Source: ChEMBL document CHEMBL1158040
